- EXPERIMENTAL_PROTOCOL: in vitro
- MEASUREMENT_PARAMETERS: human, hela cells, % viability
Lab note: anything with viability at 28.5 h, 10 µM below 90% is marked yes; values at 90% or higher are marked no.

INSERT INTO measurements (molecule, cat) VALUES
  ('Brc1cccc(-c2cn3ccnc3c(NC3CCOCC3)n2)c1', 'no'),
  ('COC1(CNC(=O)c2cc3ccccc3[nH]2)CCSC1 (centres unmarked)', 'no'),
  ('Cc1cccc(N=C(S)N(CCN(C)C)Cc2cc3cc(C)cc(C)c3nc2O)c1', 'no'),
  ('NCC1CCN(c2cc(C(F)(F)F)c3scc(C(=O)NCCC4=CCCCC4)c3n2)CC1', 'yes');

* * *

- EXPERIMENTAL_PROTOCOL: in vitro
- MEASUREMENT_PARAMETERS: human, hela cells, % viability
viability at 28.5 h, 10 µM values, listed per item
EXPERIMENTAL_ENDPOINT: viability at 28.5 h, 10 µM (%)

INSERT INTO measurements (compound, quantitative_result) VALUES
  ('COc1cc(C2SCC(=O)Nc3c2c(-c2ccccc2)nn3-c2ccccc2)cc(OC)c1OC (stereo not shown)', 108),
  ('O=C(O)c1c(-c2ccccc2)oc2ccc(NS(=O)(=O)c3ccc(F)cc3)cc12', 89.9),
  ('CCn1cc(CN2C[C@@H]3CCCN3C[C@@H]2CCSC)cn1', 86.9),
  ('Nc1ncnc(Nc2cccc(F)c2)n1', 91.7),
  ('Cc1cc(N2CCOCC2)c2c(N)c(Br)cc(C)c2n1', 73),
  ('O=C(c1ccc(F)cc1)[C@H]1CCCN(C(=O)C2CC2)C1', 90.5),
  ('Cc1cc(COc2nc3ccccc3nc2NCCCCO)no1', 94.1),
  ('Cc1cccc(Nc2nc(N/N=C/c3c[nH]nc3-c3ccccc3)nc(N3CCC(C)CC3)n2)c1C', 89.3),
  ('O=C(c1cc[nH]c1)N1CCCC2(CCN(C(=O)c3ccoc3)C2)C1 (stereo not shown)', 105),
  ('Cc1ccccc1-n1nc(C)c(CN2CCC(O)C(C)C2)c1C (stereo not shown)', 84.2),
  ('Cc1nc(-c2ccco2)nc2sc(C(=O)N(C)CC3COc4ccccc4O3)c(C)c12 (stereo not shown)', 105),
  ('O=C1Cc2ccccc2C2(CCN(C(=O)c3cccc4cccc(C(=O)O)c34)CC2)N1', 93.2),
  ('Cc1cc(C)nc(Nc2noc(-c3ccccc3)n2)n1', 94.5),
  ('CCn1c(=O)n(CC(=O)NCc2cccc(F)c2)c2cccnc21', 86.4),
  ('COc1ccc(C)cc1C1(CNC(=O)C2CC(O)CN2)CCOCC1 (stereo not shown)', 92),
  ('CC[C@H]1CN(C(=O)c2ccnc(Cl)c2)CC[C@H]1CC(=O)O', 92),
  ('COCOc1ccc(-c2ncc(OC)nc2NC(=O)c2cc(C)oc2C)cc1', 97.6),
  ('O=C(CN1C2CCC1CC(O)(c1ccco1)C2)NCc1ccccc1 (stereo not shown)', 94.5),
  ('Cc1cc(C(F)(F)F)nn1CCC(=O)Nc1cnn(C)c1C(=O)O', 98.4);

* * *

- EXPERIMENTAL_PROTOCOL: in vitro
- MEASUREMENT_PARAMETERS: human, hela cells, % viability
Below: a set of entries, each annotated with reported viability at 28.5 h, 10 µM.
EXPERIMENTAL_ENDPOINT: viability at 28.5 h, 10 µM (%)

INSERT INTO measurements (compound, u, quantitative_result) VALUES
  ('Cc1ccc(OCc2nnc(SCC(=O)c3ccc(Br)cc3)n2N)cc1 [CBK266482]', '%', 99.5),
  ('O=C(COc1cccc2ccccc12)NNC(=O)Cc1ccc(Cl)cc1 [CBK262988]', '%', 112),
  ('CN(C)CC(=O)N1c2ccccc2CCc2ccc(NC(=O)c3ccc([N+](=O)[O-])cc3)cc21 [CBK278207C]', '%', 87.4),
  ('COc1cc(/C=N/c2ccc3oc(-c4ccc(C(C)(C)C)cc4)nc3c2)ccc1OC(=O)c1ccc(Cl)cc1Cl [CBK261238]', '%', 104),
  ('O=C(O)C1C2C=CC(C2)C1C(=O)N1CCc2ccccc21 (stereo not shown) [CBK286537]', '%', 85.2),
  ('O=c1[nH]c2ncc(-c3cccnc3)nc2n1Cc1ccc(Cl)cc1 [CBK064561]', '%', 98.3),
  ('O=C(NCCn1nc(-c2ccco2)ccc1=O)C1CCCC1 [CBK283707]', '%', 92),
  ('COc1ccc(CNC(=O)CSc2nnc(-c3ccncc3)n2C)cc1 [CBK266613]', '%', 95),
  ('Cc1cc(C(=O)CSc2nc(=O)cc(O)n2CC(C)C)c(C)n1C [CBK295649]', '%', 85.4),
  ('O=C(CNS(=O)(=O)Cc1ccccc1[N+](=O)[O-])Nc1ccc(F)cc1 [CBK042228]', '%', 90),
  ('COc1ccc(-c2nc(-c3ccncc3)ncc2C(=O)NCc2ccncc2)cc1 [CBK291112]', '%', 96.4),
  ('Cc1cc(Cn2nnc(-c3cccnc3)n2)cc(C)c1O [CBK291130]', '%', 113),
  ('COc1cc(OC)c(NC(=O)C(C)Oc2ccc(Br)cc2)cc1Cl (stereo not shown) [CBK266791]', '%', 97),
  ('COc1ccc2[nH]cc(C(=O)NCCn3nc(C)c(C)c3C)c2c1 [CBK281389]', '%', 88.2),
  ('Cc1nnnn1C(Cc1cccc(F)c1)C(=O)N1CC(C)CC(C)C1 (stereo not shown) [CBK298262]', '%', 96.3),
  ('CC(C)CC(=O)N1C[C@H]2CCCN(Cc3ccsc3)[C@H]2C1 [CBK285290]', '%', 102),
  ('Cc1nc2c(c(=O)[nH]1)CN(Cc1ccccc1F)CC2 [CBK283948]', '%', 89.3),
  ('CCCc1cc(C(N)=O)c(NC(=O)c2cc(-c3ccc(C)o3)nc3ccccc23)s1 [CBK267766C]', '%', 90.9),
  ('COc1ccc(C(=O)N2CCN(Cc3ccccc3)CC2)c(OC)n1 [CBK200169]', '%', 99.2);

* * *

- EXPERIMENTAL_PROTOCOL: in vitro
- MEASUREMENT_PARAMETERS: human, hela cells, % viability
The entries below come with measured viability at 28.5 h, 10 µM values attached.
EXPERIMENTAL_ENDPOINT: viability at 28.5 h, 10 µM (%)

INSERT INTO measurements (molecule, experimental_endpoint, u, quantitative_result) VALUES
  ('c1ccc(CN2CCC[C@H]2c2nc(-c3ccc(-c4cncnc4)nc3)no2)cc1', 'viability at 28.5 h, 10 µM', '%', 87.5),
  ('COc1cc(CN2CCC[C@@H]2CN2CCCC2)cc(OC)c1OC', 'viability at 28.5 h, 10 µM', '%', 105),
  ('O=C(NC(c1ccc(F)cc1)c1ccccn1)C1CCN(C(=O)c2ccno2)CC1 (centres unmarked)', 'viability at 28.5 h, 10 µM', '%', 99.9),
  ('CCCC(=O)Nc1cc2ccccc2c(N2CCNCC2)n1 [CBK024608T]', 'viability at 28.5 h, 10 µM', '%', 102),
  ('COc1cc(/C=N/NC(=O)c2ccc([N+](=O)[O-])cc2)ccc1OC(C)=O', 'viability at 28.5 h, 10 µM', '%', 112);

* * *

Here, each record is paired with measured viability at 28.5 h, 10 µM data.
- EXPERIMENTAL_PROTOCOL: in vitro
- MEASUREMENT_PARAMETERS: human, hela cells, % viability
EXPERIMENTAL_ENDPOINT: viability at 28.5 h, 10 µM (%)

INSERT INTO measurements (molecule, quantitative_result) VALUES
  ('Cc1cc(-c2nc3ncccc3o2)ccc1NC(=O)c1ccc2c(c1)OCCO2', 94.1),
  ('N#CCCCN1CCC(Oc2nccnc2OCc2ccc(-c3ccccc3)cc2)CC1', 95.4),
  ('Cc1nc(SCCC(=O)Nc2ccccc2C#N)nc2cc3c(cc12)CCC3', 90.2),
  ('CN(C)c1nc(N(C)C)n(Cc2ccc(F)cc2)n1', 89.3),
  ('CC(=O)N1CC[C@H]2NC(=O)CNC(=O)C3(CCCC[C@H]2C1)CCN(C(=O)CC1CCOCC1)CC3', 92.9),
  ('O=C(Cn1c(-c2ccc(F)cc2)cc2cccnc21)N1CCCC1', 102),
  ('O=C(O)c1ccc(CSc2nnc(Cc3ccccc3)[nH]2)o1', 99.3),
  ('OC(CCNC1CCCCC1)(c1ccccc1)c1ccccc1', 101),
  ('O=[N+]([O-])c1ccc(CN2CCN(Cc3cc(Br)ccc3O)CC2)cc1 [CBK263652G]', 88.9);
